- Tested on: DU145 cells
- Protocol text: MTT assay, DU145 cells
- Type: cell-based, human
- Run parameters: Homo sapiens, DU-145; prostate cancer cells; 48 h of treatment; mean ± SD
Give measured IC50 for each item. Keep answers brief.
One number for each entry, in µM.

Look over these answered cases.
| Molecule | IC50 / µM |
| --- | --- |
| O=C1c2cc(Br)ccc2-[n+]2ccc3c([nH]c4c(Br)cc(Br)cc43)c21.[Cl-] [Compound 13] | 13.2 |
| O=C1c2ccc(Br)cc2-[n+]2ccc3c([nH]c4ccc(Br)cc43)c21.[Cl-] [Compound 15] | 0.616 |
| O=C1c2cc(Br)ccc2-[n+]2ccc3c([nH]c4c(Cl)cc(Cl)cc43)c21.[Cl-] [Compound 14] | 6.91 |

Answer for every listed entry: what is its IC50? The entries follow.
1. O=C1c2ccc(Br)cc2-[n+]2ccc3c([nH]c4ccccc43)c21 [Compound 3, 3-bromofascaplysin]
2. O=C1c2ccccc2-[n+]2cc(-c3ccccc3)c3c([nH]c4ccccc43)c21.[Cl-] [Compound 16]
3. O=C1c2cc(Br)ccc2-[n+]2ccc3c([nH]c4ccc(Br)cc43)c21.[Cl-] [Compound 10]

# output
1.51
0.491
0.913
